- TARGET SYSTEM: Nucleoprotein (Lymphocytic choriomeningitis virus (strain Armstrong)) (UniProt P09992)
- Sequence (P09992 whole entry, looked up): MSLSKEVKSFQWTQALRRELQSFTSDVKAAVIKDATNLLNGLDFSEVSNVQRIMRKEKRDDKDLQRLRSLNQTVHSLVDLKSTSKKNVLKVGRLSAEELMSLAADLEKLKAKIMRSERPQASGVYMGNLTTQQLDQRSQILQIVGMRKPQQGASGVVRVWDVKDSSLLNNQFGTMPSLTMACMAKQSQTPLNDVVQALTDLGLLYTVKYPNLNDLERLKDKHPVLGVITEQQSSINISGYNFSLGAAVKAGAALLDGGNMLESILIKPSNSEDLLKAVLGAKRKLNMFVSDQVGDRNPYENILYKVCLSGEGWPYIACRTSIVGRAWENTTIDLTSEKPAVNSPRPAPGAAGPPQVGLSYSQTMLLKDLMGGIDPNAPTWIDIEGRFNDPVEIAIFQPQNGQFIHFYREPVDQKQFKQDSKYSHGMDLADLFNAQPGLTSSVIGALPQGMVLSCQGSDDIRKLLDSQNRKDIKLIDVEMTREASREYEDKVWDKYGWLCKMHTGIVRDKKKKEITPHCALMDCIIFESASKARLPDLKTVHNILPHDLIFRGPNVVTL
- TEST NAME: qHTS for Inhibitors of the Functional Ribonucleoprotein Complex (vRNP) of Lymphocytic Choriomeningitis Arenaviruses (LCMV): LCMV Primary Screen - GLuc reporter signal (AID 1347086); note: nearly all actives have a fitted effect of over 70% in size
- EXPERIMENTAL PARAMETERS: LCMV minigenome vRNP cell assay, Gaussia luciferase reporter; series mostly up to 57.5 µM
Records with an inconclusive call do not appear. Activity calls are given as the source filed them. Calls come from the whole dose curve.
Allowed answers: active, inactive

O=S(=O)(c1ccc(Cl)cc1)c1ccc(Cl)cc1    inactive

**Q:** Per the records of this test, what outcome belongs to "COc1cc2c(cc1OC)C(=O)CC2" ?
**A:** inactive

**Q:** Now the compound "c1cc2c(cc1[C@H]1OC[C@H]3[C@H]1CO[C@H]3c1ccc3c(c1)OCO3)OCO2"
**A:** inactive

**Q:** What do you get for "c1ccc2c(CN3CCNCC3)cccc2c1" ?
**A:** inactive

**Q:** And then "CC[C@@H]1C(=O)N(C)c2cnc(Nc3ccc(C(=O)NC4CCN(C)CC4)cc3OC)nc2N1C1CCCC1" , what is it?
**A:** active

**Q:** Also, CC(C)(C)NCC(O)c1ccc(O)c(CO)c1 (stereo unspecified) please.
**A:** inactive

====

- TEST NAME: qHTS of pediatric cancer cell lines to identify multiple opportunities for drug repurposing: Primary screen for SK-N-MC cells (AID 1347093)
- EXPERIMENTAL PARAMETERS: SK-N-MC viability, CellTiter-Glo luminescence, 48 h; series mostly up to 46 µM
Inconclusive results are not listed. Calls of active or inactive are those of the source. Calls come from the whole dose curve; as a rule, active = well fitted cell-killing curve with a large enough effect; inconclusive = small, poorly fitted or top-dose-only effect; inactive = no such curve, though single readings can be large or run the other way.
Bench note: report the call from active, inactive

**Q:** Which result was noted for this compound in the test: CC(C)(C)[C@]1(O)C[C@@H]2OC(=O)C[C@@]23C(=O)O[C@@H]2OC(=O)[C@H](O)C213 (some centres undefined)
**A:** inactive

====

- TEST NAME: Primary qHTS for inhibitors of nuclear receptor binding SET domain protein 2 (NSD2) in an RCH-ACV wild type WT cells (2C) (AID 1645877); note: nearly all actives have a fitted effect of over 70% in size
- EXPERIMENTAL PARAMETERS: RCH-ACV (leukaemia line) NSD2 WT (2C) viability, CellTiter-Glo, 72 h; series mostly up to 44.9 µM
- Excerpt: Assay Provider: Jonathan D. Licht, MD University of Florida College of Medicine, Gainesville, FL Mutations in epigenetic regulators are common in relapsed pediatric acute lymphoblastic leukemia (ALL). Here, we uncovered the mechanism underlying the relapse of ALL driven by an activating mutation of the NSD2 histone methyltransferase (p.E1099K). […] Correction of this mutation restored glucocorticoid sensitivity. […]
Records with an inconclusive call do not appear. The source made the active and inactive calls. The call rests on the fitted dose curve; in most records, active means well fitted inhibition curve with a large enough effect; inconclusive means small, poorly fitted or top-dose-only effect; inactive means no such curve, though single readings can be large or run the other way.
Classes to choose from: active, inactive

// known answers, use as guide
NC1=NC(=O)N2CC12 (stereo not drawn)    inactive
CC[C@@]1(O)C(=O)OCc2c1cc1n(c2=O)Cc2cc3ccccc3nc2-1    active
CCOCCOC(C)=O    inactive

**Q:** Would you mind telling me which call this test gave "O=S(=O)(F)Cc1ccccc1" ?
**A:** inactive

**Q:** Can you check "O=C(O)C(Cl)Cl" next?
**A:** inactive

**Q:** Would you mind doing "CN(C)NC(=O)CCC(=O)O" as well?
**A:** inactive

**Q:** Proceed to "CO/C=C(/C(=O)OC)c1ccccc1Oc1cc(Oc2ccccc2C#N)ncn1"
**A:** active

**Q:** Note, next up: COC(C)(C)CCCC(C)C/C=C/C(C)=C/C(=O)OC(C)C (stereo not drawn)
**A:** inactive

**Q:** And for "Oc1ccc2c3c1O[C@H]1[C@@H](O)C=C[C@H]4[C@@H](C2)NCC[C@@]341" ?
**A:** active

**Q:** // next record "O=[N+]([O-])c1cc([N+](=O)[O-])c2ccccc2c1"
**A:** inactive

**Q:** What do we get for "CC1=C(O)C(=O)C=C2C1=CC=C1[C@@]2(C)CC[C@@]2(C)[C@@H]3C[C@](C)(C(=O)O)CC[C@]3(C)CC[C@]12C" ?
**A:** active

**Q:** Can you handle "CS(=O)(=O)c1ccc(C(=O)C2C(=O)CCCC2=O)c([N+](=O)[O-])c1" next?
**A:** inactive

**Q:** Next compound up: "CN1CCN(c2ccc([N+](=O)[O-])c3no[n+]([O-])c23)CC1"
**A:** active

**Q:** Quick one: CC(O)CN1CCN(CC(=O)[O-])CCN(CC(=O)[O-])CCN(CC(=O)[O-])CC1.[Gd+3] (stereo not drawn)
**A:** inactive
